Assay: Biodistribution studies in NMRI mice
Format: in vivo
Conditions: i.v., 60 min p.i.
measured.attribute: SUV, liver

[11CH3]Oc1ccc(S(N)(=O)=O)cc1 [[^11C]-(6), 4-[^11C]methoxybenzene sulfonamide] | 1.4
NS(=O)(=O)c1ccc(CCNC(=O)c2ccc(OCC[18F])cc2)cc1 [[^18F]-(3)] | 1.7

P = [11CH3]Oc1ccc(C(=O)NCCc2ccc(S(N)(=O)=O)cc2)cc1 [[^11C]-(4)]
Q = NS(=O)(=O)c1ccc(OCC[18F])cc1 [[^18F]-(5)]
Of the pair P and Q , name the member with the lesser recorded SUV, liver. // respond with label for picked entry
Q

* * *

Experiment: Biodistribution studies in NMRI mice
Format: in vivo
Settings: i.v., 60 min p.i.
measured.attribute: SUV, lungs

Answered examples (2):
NS(=O)(=O)c1ccc(OCC[18F])cc1 [[^18F]-(5)] | 3.8
[11CH3]Oc1ccc(S(N)(=O)=O)cc1 [[^11C]-(6), 4-[^11C]methoxybenzene sulfonamide] | 3.5

P = NS(=O)(=O)c1ccc(CCNC(=O)c2ccc(OCC[18F])cc2)cc1 [[^18F]-(3)]
Q = [11CH3]Oc1ccc(C(=O)NCCc2ccc(S(N)(=O)=O)cc2)cc1 [[^11C]-(4)]
From the recorded data, which exceeds the other in SUV, lungs: P or Q ? The response must carry the label of the picked entry.
Q

* * *

Assay: Biodistribution studies in NMRI mice
Assay type: in vivo
Conditions: i.v., 2 min p.i., blood mass assumed 7% of body mass
measured.attribute: Percentage of ID, blood (% ID)

Examples with their reported Percentage of ID, blood follow.
[11CH3]Oc1ccc(S(N)(=O)=O)cc1 [[^11C]-(6), 4-[^11C]methoxybenzene sulfonamide] | 83.4
[11CH3]Oc1ccc(C(=O)NCCc2ccc(S(N)(=O)=O)cc2)cc1 [[^11C]-(4)] | 90.5

a = NS(=O)(=O)c1ccc(CCNC(=O)c2ccc(OCC[18F])cc2)cc1 [[^18F]-(3)]
b = NS(=O)(=O)c1ccc(OCC[18F])cc1 [[^18F]-(5)]
Parameter metric = Percentage of ID, blood. Return the lower-valued option from a and b . I would appreciate it if you answered with the label of your choice.
a

* * *

Assay: Biodistribution studies in NMRI mice
Assay type: in vivo
Settings: i.v., 2 min p.i.
Experimental: The biodistribution studies were performed in wild-type NMRI mice with body weights ranging from 30 to 40 g. Mice were intravenously injected with 0.1 MBq of ^18F]-(3) or ^18F]-(5) and 5.5 MBq of ^11C]-(4) or ^11C]-(6) under anesthesia (2% isoflurane in O2 at a flow rate of 1 L/min). The animals were killed by decapitation at 2 min or 60 min p.i. (n = 4/time point for ^18F]-(3), ^11C]-(4), and ^11C]-(6); n = 6 for ^18F]-(5)). […]
measured.attribute: Percentage of ID, stomach (% ID)

[11CH3]Oc1ccc(C(=O)NCCc2ccc(S(N)(=O)=O)cc2)cc1 [[^11C]-(4)] | 0.7
NS(=O)(=O)c1ccc(OCC[18F])cc1 [[^18F]-(5)] | 0.8

I = [11CH3]Oc1ccc(S(N)(=O)=O)cc1 [[^11C]-(6), 4-[^11C]methoxybenzene sulfonamide]
II = NS(=O)(=O)c1ccc(CCNC(=O)c2ccc(OCC[18F])cc2)cc1 [[^18F]-(3)]
Which gives the smaller Percentage of ID, stomach number: I or II ? Reply briefly: the label of your chosen item.
II
(II: 0.7 % ID, I: 1.5 % ID)

* * *

Assay: Biodistribution studies in NMRI mice
Format: in vivo
Settings: i.v., 2 min p.i.
measured.attribute: SUV, kidneys

Would you please look over these solved cases?
NS(=O)(=O)c1ccc(OCC[18F])cc1 [[^18F]-(5)] | 3.1
NS(=O)(=O)c1ccc(CCNC(=O)c2ccc(OCC[18F])cc2)cc1 [[^18F]-(3)] | 5.6

A = [11CH3]Oc1ccc(S(N)(=O)=O)cc1 [[^11C]-(6), 4-[^11C]methoxybenzene sulfonamide]
B = [11CH3]Oc1ccc(C(=O)NCCc2ccc(S(N)(=O)=O)cc2)cc1 [[^11C]-(4)]
Name the one with the greater SUV, kidneys value, either A or B as given. Bench note: the answer is the label of the chosen record.
B

* * *

Test: Biodistribution studies in NMRI mice
Type: in vivo
Conditions: i.v., 60 min p.i.
measured.attribute: SUV, kidneys

[11CH3]Oc1ccc(C(=O)NCCc2ccc(S(N)(=O)=O)cc2)cc1 [[^11C]-(4)] | 2.5
[11CH3]Oc1ccc(S(N)(=O)=O)cc1 [[^11C]-(6), 4-[^11C]methoxybenzene sulfonamide] | 2.4

A = NS(=O)(=O)c1ccc(OCC[18F])cc1 [[^18F]-(5)]
B = NS(=O)(=O)c1ccc(CCNC(=O)c2ccc(OCC[18F])cc2)cc1 [[^18F]-(3)]
I'm curious whether A or B has the smaller SUV, kidneys number. Which is it? Choose, then provide that item's label.
B

* * *

Assay: Biodistribution studies in NMRI mice
Format: in vivo
Settings: i.v., 2 min p.i.
measured.attribute: SUV, brain

NS(=O)(=O)c1ccc(CCNC(=O)c2ccc(OCC[18F])cc2)cc1 [[^18F]-(3)] | 0.2

1 = [11CH3]Oc1ccc(C(=O)NCCc2ccc(S(N)(=O)=O)cc2)cc1 [[^11C]-(4)]
2 = NS(=O)(=O)c1ccc(OCC[18F])cc1 [[^18F]-(5)]
Given 1 and given 2 , which shows the smaller recorded SUV, brain? Refer to your chosen entry by its label in the reply.
1
(1: 0.2, 2: 0.5)

* * *

Assay: Biodistribution studies in NMRI mice
Type: in vivo
Settings: i.v., 2 min p.i.
measured.attribute: SUV, lungs

[11CH3]Oc1ccc(S(N)(=O)=O)cc1 [[^11C]-(6), 4-[^11C]methoxybenzene sulfonamide] | 6.2

A = NS(=O)(=O)c1ccc(CCNC(=O)c2ccc(OCC[18F])cc2)cc1 [[^18F]-(3)]
B = [11CH3]Oc1ccc(C(=O)NCCc2ccc(S(N)(=O)=O)cc2)cc1 [[^11C]-(4)]
C = NS(=O)(=O)c1ccc(OCC[18F])cc1 [[^18F]-(5)]
Highest SUV, lungs first, then in falling order down to the smallest. Present the labels in the sequence the task asks for.
C, B, A

* * *

Assay: Biodistribution studies in NMRI mice
Type: in vivo
Conditions: i.v., 60 min p.i.
measured.attribute: Percentage of ID, carcass (% ID)

[11CH3]Oc1ccc(S(N)(=O)=O)cc1 [[^11C]-(6), 4-[^11C]methoxybenzene sulfonamide] | 26.1
NS(=O)(=O)c1ccc(OCC[18F])cc1 [[^18F]-(5)] | 22.4

P = NS(=O)(=O)c1ccc(CCNC(=O)c2ccc(OCC[18F])cc2)cc1 [[^18F]-(3)]
Q = [11CH3]Oc1ccc(C(=O)NCCc2ccc(S(N)(=O)=O)cc2)cc1 [[^11C]-(4)]
API: POST /compare with P and Q ; response names the item with higher Percentage of ID, carcass. Lab note: record the label of whichever item you select.
P

* * *

Assay: Biodistribution studies in NMRI mice
Assay type: in vivo
Conditions: i.v., 2 min p.i.
measured.attribute: SUV, blood

[11CH3]Oc1ccc(C(=O)NCCc2ccc(S(N)(=O)=O)cc2)cc1 [[^11C]-(4)] | 12.9
NS(=O)(=O)c1ccc(CCNC(=O)c2ccc(OCC[18F])cc2)cc1 [[^18F]-(3)] | 10.1

1 = NS(=O)(=O)c1ccc(OCC[18F])cc1 [[^18F]-(5)]
2 = [11CH3]Oc1ccc(S(N)(=O)=O)cc1 [[^11C]-(6), 4-[^11C]methoxybenzene sulfonamide]
// returns 1 or 2 , whichever has the lower SUV, blood Give the label under which the chosen entry appears.
2

* * *

Assay: Biodistribution studies in NMRI mice
Format: in vivo
Settings: i.v., 60 min p.i.
measured.attribute: Percentage of ID, intestines (% ID)

A = [11CH3]Oc1ccc(C(=O)NCCc2ccc(S(N)(=O)=O)cc2)cc1 [[^11C]-(4)]
B = NS(=O)(=O)c1ccc(CCNC(=O)c2ccc(OCC[18F])cc2)cc1 [[^18F]-(3)]
Of A versus B , which is the one with smaller reported Percentage of ID, intestines? Give the label under which the chosen entry appears.
A
(A: 12.4 % ID, B: 18.6 % ID)

P = NS(=O)(=O)c1ccc(OCC[18F])cc1 [[^18F]-(5)]
Q = [11CH3]Oc1ccc(S(N)(=O)=O)cc1 [[^11C]-(6), 4-[^11C]methoxybenzene sulfonamide]
# compare Percentage of ID, intestines for P vs Q ; return the one with the smaller value In your reply, give the label of the chosen option.
P

* * *

Assay: Biodistribution studies in NMRI mice
Assay type: in vivo
Conditions: i.v., 2 min p.i.
measured.attribute: Percentage of ID, liver (% ID)

// solved cases for Percentage of ID, liver follow
[11CH3]Oc1ccc(S(N)(=O)=O)cc1 [[^11C]-(6), 4-[^11C]methoxybenzene sulfonamide] | 6.9
NS(=O)(=O)c1ccc(OCC[18F])cc1 [[^18F]-(5)] | 6.0

P = [11CH3]Oc1ccc(C(=O)NCCc2ccc(S(N)(=O)=O)cc2)cc1 [[^11C]-(4)]
Q = NS(=O)(=O)c1ccc(CCNC(=O)c2ccc(OCC[18F])cc2)cc1 [[^18F]-(3)]
// which entry reports the smaller Percentage of ID, liver, P or Q ? Your answer should be the label of the entry you select.
P
